Tested on: A427 cells
assaySummary: Tumor cell proliferation inhibitory activity assay (CCK-8)
Type: cell-based, Human
experimentalSetup: Homo sapiens, A-427, 72 h compound incubation, CCK-8
For each record, write down the corresponding pIC50.
Just the number, please; pIC50 means minus log10 of the concentration in mol/L.

Problem: GET pIC50 | system: A427 cells | item: [2H]C1(Oc2ccc(Nc3ncc4c(=O)n5n(c4n3)-c3cccc(n3)[C@](C)(O)CCC=CC5)cc2C)CCN(C)CC1 (single isomer, unassigned) [Compound 172A]
Solution: 7.82

Problem: GET pIC50 | system: A427 cells | item: CCOP1(=O)CCN(c2ccc(Nc3ncc4c(=O)n5n(c4n3)-c3cccc(n3)C(C)(O)CCC=CC5)cc2C)CC1 (racemic)
Solution: 6.80

Problem: GET pIC50 | system: A427 cells | item: Cc1cc(Nc2ncc3c(=O)n4n(c3n2)-c2cccc(n2)C(C)(O)CCC=CC4)ccc1OC1CN(C)[C@H]1C (stereo partly drawn)
Solution: 7.11

Problem: GET pIC50 | system: A427 cells | item: Cc1cc(Nc2ncc3c(=O)n4n(c3n2)-c2cccc(n2)C(C)(O)CC/C=C\C4)ccc1NC1CCN(C)CC1 (single isomer, unassigned) [Compound 203A]
Solution: 7.15

Problem: GET pIC50 | system: A427 cells | item: Cc1cc(Nc2ncc3c(=O)n4n(c3n2)-c2cccc(n2)[C@](C)(O)CCC=CC4)ccc1OC1CCN(C2COC2)CC1
Solution: 6.79

Problem: GET pIC50 | system: A427 cells | item: CN1CCN(Cc2ccc(Nc3ncc4c(=O)n5n(c4n3)-c3cccc(n3)C(C)(O)CCC=CC5)cc2)CC1 (stereo not drawn)
Solution: 6.84
